Overview of reported normalized growth across a group of molecules:
protocol summary: chemical genetic growth profiling, strain panel (AID 1159580);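 note: tested at 20 µM; growth read once vehicle control cultures reached saturation at 30 °C; 1 = growth at the plate median or of vehicle wells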
test context: S. cerevisiae deletion strains, growth OD, locus YJR043C, strain POL32, stronger effect = lower value
Out of some 5,500 compounds screened, about 2,000 (36%) were called active. Roughly 18% stayed inconclusive and do not appear here. The list shows a part of the results.
Output: the number by itself.

Cc1cc(O)c2c(c1)Cc1cccc(O)c1C2=O; 1.01
C=C1SC(=Nc2cccc(OC)c2)N(C(=O)C(c2ccccc2)C2CCCC2)C1(C)C (configuration not stated); 1.01
O=C(CSCc1c(F)cccc1Cl)Nc1ccc(F)c(Cl)c1; 0.909

Below: the item to evaluate.
Request: Return normalized growth (reported value) for this molecule: Cc1noc(C)c1C(=O)N1CCN(c2ncc(C(F)(F)F)cc2Cl)CC1
Response: 0.998

====

protocol summary: chemical genetic growth profiling, strain panel (AID 1159580)
test context: S. cerevisiae deletion strains, growth OD, locus YOR106W, strain vam3
Screen size: about 5,500 compounds; about 2,000 (36%) were called active. Another 18% or so got no clear call; they are omitted. No stated cut-off is given here; in the data, active means normalized growth mostly below about 0.91 (no sharp cut-off); inconclusive means no clear call, values can overlap the other calls; inactive means mostly above about 0.92. The list shows a part of the results.
Respond using exactly one of the listed classes: active, inactive

Please review the entries below; each comes with its answer.
COC(=O)C[C@H]1C(C)(C)C(=O)[C@@H]2CC3C4=CC(=O)O[C@@H](c5ccoc5)[C@]4(C)CCC3[C@@]1(C)C2=O (stereo partly specified); inactive
COC(=O)Nc1nc2ccc(C(=O)c3ccccc3)cc2[nH]1; active
O=c1ccc2ccc(O)cc2o1; inactive
C[C@H]1[C@H](C)CC[C@]2(CO)CC[C@]3(C)C(=CCC4[C@@]5(C)CC[C@H](O)C(C)(C)C5CC[C@]43C)[C@H]12 (stereo partly specified); inactive
C#C[C@]1(O)CCC2C3CCC4=CC(=O)CC[C@@H]4C3CC[C@@]21C (stereo partly specified); inactive
C#C[C@]1(O)CCC2C3CCC4=C(CCC(=O)C4)C3CC[C@@]21C (stereo partly specified); inactive
C/C=C(/C)C(=O)OC1CCC2(C)C3CCC4C5(O)CC(O)C6(O)C(CN7CC(C)CCC7C6(C)O)C5(O)CC42OC13O (stereo unspecified); inactive
C[C@]12CCC(=O)C=C1CCC1C2[C@@H](O)C[C@@]2(C)C1CC[C@]2(O)C(=O)CO (stereo partly specified); inactive

Request: Check the results log: what was the call for COC(=O)Nc1nc2ccc(S(=O)c3ccccc3)cc2[nH]1 (stereo unspecified) ?
Response: inactive

Request: Record request — test call for CCC(C)C(=O)O[C@H]1[C@H](O)C2C(CN3CC(C)CCC3[C@@]2(C)O)C2C[C@]34O[C@]5(O)C(OC(=O)C(C)(O)CC)CC[C@@]3(C)C5C(OC(C)=O)[C@@H](OC(C)=O)C4[C@@]21O (stereo partly specified)
Response: inactive

Request: Give the logged outcome of this assay for the following compound: CCCCCCCCCCCC[C@H](C(=O)O)[C@@H](C)C(=O)O
Response: inactive

Request: # lookup: test call for O=c1oc2cc(O)ccc2s1
Response: inactive

Request: Identify the outcome logged in this assay for the compound shown: C#C[C@]1(OC(C)=O)CCC2C3CCC4=C/C(=N\O)CCC4C3CC[C@@]21CC (stereo partly specified)
Response: active

====

protocol summary: chemical genetic growth profiling, strain panel (AID 1159580)
test context: S. cerevisiae deletion strains, growth OD, locus YHR079C, strain IRE1, stronger effect = lower value
Out of some 5,500 compounds screened, about 2,000 (36%) were called active. Another 18% or so got no clear call; they are omitted. This is one part of the list.
Rule: measured normalized growth below 1 gets YES; anything equal to or greater than 1 gets NO.

Cc1csc(NC(=O)Nc2ccc(C(F)(F)F)cc2)c1; YES
N=C(N)SCCN; NO

Request: Does COc1c(-c2coc3cc4c(cc3c2=O)CC(OC(C)=O)C(C)(C)O4)ccc2c1C=CC(C)(C)O2 (configuration not stated) have normalized growth strictly under 1?
Response: YES

Request: Hi there! Is normalized growth for COc1c(CC(=O)c2cc3c(cc2O)OC(C)(C)C(O)C3)ccc2c1C=CC(C)(C)O2 (configuration not stated) below 1, do you know?
Response: YES

Request: Criterion: normalized growth strictly below 1. Is it met by Cc1csc(NC(=O)Nc2ccc(C(F)(F)F)cc2)c1Cl ?
Response: YES

Request: For Cc1ccc(C)c(CSc2nc(C3CCCCC3)c(C#N)c(=O)[nH]2)c1 , is the recorded normalized growth below the cut-off of 1?
Response: NO

====

protocol summary: chemical genetic growth profiling, strain panel (AID 1159580);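 note: tested at 20 µM; growth read once vehicle control cultures reached saturation at 30 °C; 1 = growth at the plate median or of vehicle wells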
test context: S. cerevisiae deletion strains, growth OD, locus YMR078C, strain ctf18
The whole screen tested about 5,500 compounds, of which about 2,000 (36%) were called active. About 18% were inconclusive and are not listed. Rule as the data show it: active = normalized growth mostly below about 0.91 (no sharp cut-off); inconclusive = no clear call, values can overlap the other calls; inactive = mostly above about 0.92. The list shows a part of the results.
Assign a class; possible classes are True (active), False (inactive)

CC(C)=CCCC1(C)C=Cc2c(O)c3c(c(CC=C(C)C)c2O1)OC12C(CC4CC1C(C)(C)OC2(C/C=C(/C)C(=O)O)C4O)C3=O (stereo not given); False
COc1cc(N)c(Cl)cc1C(=O)NC1CCN(Cc2ccccc2)CC1; False
C[C@@H]1CC[C@H]2[C@@H](C)C(=O)O[C@@H]3O[C@@]4(C)CC[C@@H]1[C@]32OO4; True
CC(C)(Oc1ccc(CCNC(=O)c2ccc(Cl)cc2)cc1)C(=O)O; False
N[C@H](C(=O)O)[C@@H]1CC(Cl)=NO1; True

Request: Hi, do you know how O=c1oc2cc(O)ccc2s1 came out in this test?
Response: False

Request: Assay result, entry Cc1cn([C@H]2C[C@H](N=[N+]=[N-])[C@@H](CO)O2)c(=O)[nH]c1=O — outcome?
Response: False

Request: Please indicate how the test categorized CC1(C)CC[C@]2(C(=O)O)CC[C@]3(C)C(=CCC4[C@@]5(C)CC[C@H](O)[C@@](C)(CO)C5CC[C@]43C)C2C1 (stereo not given in full) .
Response: False

Request: Test call, this compound: COc1cccc(OC)c1OCCNCC1COc2ccccc2O1 (stereo not given)
Response: False

Request: Per the records of this test, what outcome belongs to CC1=CCC2C3(C)C1=CC(=O)OC3CC1C(C)(C)CC(O)C(O)C12C (stereo not given) ?
Response: False

====

protocol summary: chemical genetic growth profiling, strain panel (AID 1159580);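 note: tested at 20 µM; growth read once vehicle control cultures reached saturation at 30 °C; 1 = growth at the plate median or of vehicle wells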
test context: S. cerevisiae deletion strains, growth OD, locus YLR262C, strain YPT6
In all, about 5,500 compounds went through this assay and about 2,000 (36%) were called active. Roughly 18% stayed inconclusive and do not appear here. Cut-off read from the data, not from the text of the source: active = normalized growth mostly below about 0.91 (no sharp cut-off); inconclusive = no clear call, values can overlap the other calls; inactive = mostly above about 0.92. This is one part of the list.
Field 'call' accepts active, inactive

Request: What is the recorded call for this compound in the test? CCOC(=O)OC(C)OC(=O)C1N2C(=O)C(NC(=O)[C@H](N)c3ccccc3)C2SC1(C)C (some centres not stated)
Response: inactive

====

protocol summary: chemical genetic growth profiling, strain panel (AID 1159580);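 note: tested at 20 µM; growth read once vehicle control cultures reached saturation at 30 °C; 1 = growth at the plate median or of vehicle wells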
test context: S. cerevisiae deletion strains, growth OD, locus YER155C, strain BEM2 (second series), stronger effect = lower value
The campaign covered roughly 5,500 compounds. About 2,000 (36%) were called active. Another 18% or so got no clear call; they are omitted. The list shows a part of the results. Where a SMILES comes first, the peptide text is derived from it. Bridges are numbered along the chain shown (N, C = ends). [ ]: non-standard residue; d: D form. The star is where a group is joined. ξ: configuration not given here. ξDab(CH2SO3H) = NC(CCNCS(=O)(=O)O)C(=O)O; Heptanoyl(6-Me) = CC(C)CCCCC(=O)*; Dab = NCC[CH](N)C(=O)O
Reported normalized growth values for the following compounds.
Just the number, please, no unit after it.

O=C(CNC(=O)c1ccc(Cl)cc1)NO; 1.03
C/C=C1\[C@H]2C=C(C)C[C@]1(N)c1ccc(=O)[nH]c1C2; 1.04
O=C(O)CC(O)(CC(=O)O)C(=O)O; 1.05
Cc1ccc(N=CN(C)C=Nc2ccc(C)cc2C)c(C)c1; 1.01
COc1ccc2c(c1)c(CC(=O)OCC(=O)O)c(C)n2C(=O)c1ccc(Cl)cc1; 0.989

Request: Answer with reported normalized growth of Cc1cc(O)ccc1Cl
Response: 0.991

Request: Check the records and state normalized growth for COc1c(-c2coc3cc4c(cc3c2=O)CC(OC(C)=O)C(C)(C)O4)ccc2c1C=CC(C)(C)O2 (stereo not given)
Response: 1.03

Request: State its normalized growth for this compound: Cc1cc(O)cc(O)c1C(=O)O
Response: 1.02

Request: Respond only with normalized growth recorded for CCC(C)C1NC(=O)C(CCNCS(=O)(=O)O)NC(=O)C(NC(=O)C(CCNCS(=O)(=O)O)NC(=O)C(NC(=O)C(CCNCS(=O)(=O)O)NC(=O)CCCCC(C)C)C(C)O)CCNC(=O)C(C(C)O)NC(=O)C(CCNCS(=O)(=O)O)NC(=O)C(CCNCS(=O)(=O)O)NC(=O)C(C(C)CC)NC1=O (stereo not given) ({Heptanoyl(6-Me)}-[ξDab(CH2SO3H)]T[ξDab(CH2SO3H)][Dab][ξDab(CH2SO3H)]II[ξDab(CH2SO3H)][ξDab(CH2SO3H)]T; lactam 4-C; configuration not given here)
Response: 1.01

Request: Look up and state reported normalized growth for Cc1cc(O)cc(=O)o1
Response: 1.04

FYI, the data here is from PubChem BioAssay AID1159580.
